system: HIVLPV-5 μM; experiment: microbe, parasite or virus in culture; format: cell-based, HIV-1; conditions: read-out: Mean IC50 ± SD; MT-4 cells, HIVLPV-5 μM, p24 assay
property: IC50

| compound | experimental_target | property | result |
| --- | --- | --- | --- |
| COC(=O)N[C@H](C(=O)N[C@@H](Cc1ccccc1)[C@@H](O)CN(Cc1ccc(-c2ccccn2)cc1)NC(=O)[C@@H](NC(=O)OC)C(C)(C)C)C(C)(C)C [ATV] | HIVLPV-5 μM | IC50 | 0.036 µM |

====

tested on: HIVNFV-5 μM; assay: microbe, parasite or virus in culture; assay type: cell-based, HIV-1; details: read-out: Mean IC50 ± SD; MT-4 cells, HIVNFV-5 μM, p24 assay

| structure_notation | IC50 |
| --- | --- |
| COC(=O)N[C@H](C(=O)N[C@@H](Cc1ccccc1)[C@@H](O)CN(Cc1ccc(-c2ccccn2)cc1)NC(=O)[C@@H](NC(=O)OC)C(C)(C)C)C(C)(C)C | 19 nM |

====

system: HIVLPV-5 μM; assay: microbe, parasite or virus in culture; format: cell-based, HIV-1; conditions: Human immunodeficiency virus 1, MT4, read-out: Mean IC50 ± SD
pIC50: −log10 of the molar value.

| compound | pIC50 |
| --- | --- |
| CC(C)CN(C[C@@H](O)[C@H](Cc1ccccc1)NC(=O)O[C@H]1CO[C@H]2OCC[C@H]21)S(=O)(=O)c1ccc(N)cc1 [DRV, darunavir] | 6.56 |

====

test system: HIVATV-5 μM; test: microbe, parasite or virus in culture; assay type: cell-based, HIV-1; conditions: Human immunodeficiency virus 1, MT4, read-out: Mean IC50 ± SD
pIC50: −log10 of the molar value.

| structure_notation | pIC50 |
| --- | --- |
| CC(C)CN(C[C@@H](O)[C@H](Cc1ccccc1)NC(=O)O[C@H]1CO[C@H]2OCC[C@H]21)S(=O)(=O)c1ccc(N)cc1 | 7.59 |

====

tested on: HIVDRV^RP30; test: microbe, parasite or virus in culture; format: cell-based, HIV-1; details: read-out: IC50 ± SD; MT-4 cells, HIVDRV^RP30, p24 assay

| compound | value_relation_sign | IC50 (nM) |
| --- | --- | --- |
| COC(=O)N[C@H](C(=O)N[C@@H](Cc1ccccc1)[C@@H](O)CN(Cc1ccc(-c2ccccn2)cc1)NC(=O)[C@@H](NC(=O)OC)C(C)(C)C)C(C)(C)C | > | 1000 |
| CC(C)CN(C[C@@H](O)[C@H](Cc1cc(F)cc(F)c1)NC(=O)O[C@H]1C2CO[C@H]3OC[C@@H]1C3C2)S(=O)(=O)c1ccc(N)cc1 (stereo partly drawn) | = | 11 |
| CC(C)CN(C[C@@H](O)[C@H](Cc1cc(F)cc(F)c1)NC(=O)O[C@H]1C2CO[C@H]3OC[C@@H]1C3C2)S(=O)(=O)c1ccc2nc(NC3CC3)sc2c1 (stereo partly drawn) | = | 0.015 |

====

tested on: wild-type HIV-1NL4-3; assay: Antiviral p24 assay in MT-4 cells, wild-type HIV-1NL4-3; assay type: cell-based; conditions: Human immunodeficiency virus 1, MT4, read-out: IC50 ± SD
pIC50: −log10 of the molar value.
property: pIC50

| structure_notation | property | numeric_value |
| --- | --- | --- |
| CC(C)CN(C[C@@H](O)[C@H](Cc1ccccc1)NC(=O)O[C@H]1CO[C@H]2OCC[C@H]21)S(=O)(=O)c1ccc(N)cc1 | pIC50 | 8.43 |
